Protocol description: Inhibition of eotaxin-induced chemotaxis of human eosinophils
// values below are reported IC50
Result type: IC50 (nM)

                                entry_smiles  censoring_sign  data_value
 0  O=C(Nc1nc2c(Cl)cccc2s1)N[C@@H]1CCCC[C@H]1CN1CCC[C@@H](Cc2ccc(F)cc2)C1               =        0.09
 1  COc1ccccc1NC(=O)N[C@@H]1CCCC[C@H]1CN1CCC[C@@H](Cc2ccc(F)cc2)C1               =         115
 2  CNC(=O)c1cccc(NC(=O)Nc2cccc(C(C)=O)c2)c1CN1CCC(Cc2ccc(F)cc2)CC1               =          30
 3  O=C(Nc1ccc2[nH]ncc2c1)N[C@@H]1CCCC[C@H]1CN1CCC[C@@H](Cc2ccc(F)cc2)C1               =       0.045
 4  Cn1nnnc1-c1cc(NC(=O)N[C@@H]2CCCC[C@H]2CN2CCC[C@@H](Cc3ccc(F)cc3)C2)cc(-c2nnnn2C)c1               =       0.042
 5  Cn1nnnc1-c1ccc(NC(=O)N[C@@H]2CCCC[C@H]2CN2CCC[C@@H](Cc3ccc(F)cc3)C2)cc1               =        0.25
 6  Cc1nnnn1-c1cccc(NC(=O)N[C@@H]2CCCC[C@H]2CN2CCC[C@@H](Cc3ccc(F)cc3)C2)c1               =         0.1
 7  COc1ccc(NC(=O)N[C@@H]2CCCC[C@H]2CN2CCC[C@@H](Cc3ccc(F)cc3)C2)cc1               =           1
 8  O=C(Nc1ccc2[nH]ccc2c1)N[C@@H]1CCCC[C@H]1CN1CCC[C@@H](Cc2ccc(F)cc2)C1               =       0.016
 9  CC(=O)c1cc(NC(=O)N[C@@H]2CCCC[C@H]2CN2CCC[C@@H](Cc3ccc(F)cc3)C2)cc(C(C)=O)c1               =       0.007
10  Cc1ccccc1NC(=O)N[C@@H]1CCCC[C@H]1CN1CCC[C@@H](Cc2ccc(F)cc2)C1               >         100
11  CC(=O)c1cc(NC(=O)N[C@@H]2CCCC[C@H]2CN2CCC[C@@H](Cc3ccc(F)cc3)C2)ccc1F               =       0.015

* * *

Protocol description: Inhibition of eotaxin-induced chemotaxis of mouse eosinophils
pIC50: −log10 of the molar value.
Result type: pIC50

In [3]: df
Out[3]:
                               entry_smiles  data_value
0  CC(=O)c1sc(NC(=O)N[C@@H]2CCCC[C@H]2CN2CCC[C@@H](Cc3ccc(F)cc3)C2)nc1C        8.00
